protocol-description: NCI Yeast Anticancer Drug Screen. Data for the CLN2oe strain (AID 163);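 further: 0% = growth of vehicle-only control cultures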
condition-summary: S. cerevisiae CLN2oe strain, at 1.2 µM, active compounds read high
About 79,000 compounds went through this panel and 15% of them were active in at least one assay; those are over-represented in the sample as a whole.
readout-label: growth inhibition (%)
Output spec: scalar in %, unitless text.

Which growth inhibition is reported for this compound? O=C(COc1ccc(Cl)cc1Cl)NO -3

Also need CCOC(=O)C1C2c3ccccc3C(c3ccccc32)C1C(=O)OCC (stereo unspecified) , thanks. 7

Same lookup for O=C(O)C1C2CCC(C2)C1c1ccccc1 (stereo unspecified) , please. -7

What about O=P(Oc1ccc(Cl)cc1)(Oc1ccc(Cl)cc1)N1CC1 ? -4

Likewise for CCOP(=O)(CC(C)P(=O)(OCC)OCC)OCC.C[CH2][Sn]([Cl])([Cl])[CH2]C (stereo unspecified) ? -6

O=C(Nc1cc(Cl)ccc1Cl)C(Cl)(Cl)Cl ? 4

---

Each record here notes measured growth inhibition.
protocol-description: NCI Yeast Anticancer Drug Screen. Data for the mgt1 strain (AID 153)
condition-summary: S. cerevisiae mgt1 mutant growth inhibition; at 33.0 µM; active compounds read high
Protocol: Growth inhibition of yeast strains with defined genetic alterations is measured as a screen for potential anti-cancer activity. Selected strains with alterations in DNA damage repair or cell cycle control were exposed to compounds and growth inhibition was measured relative to vehicle treated controls. The strain used in this assay is mgt1
About 79,000 compounds went through this panel and 15% of them were active in at least one assay; those are over-represented in the sample as a whole. Activity calls are given as the source filed them. No stated cut-off is given here; in the data, active means growth inhibition above about 70%; inactive means the rest.

>>> measurement("Oc1cccnc1[Se]")
"68% (inactive)"
>>> measurement("O=[N+]([O-])c1cc(S(=O)(=O)F)ccc1Cl")
"93% (active)"
>>> measurement("CCOC(=O)C1([Se]c2ccccc2)CCCC1=O (stereo not given)")
"32% (inactive)"
>>> measurement("O=P(CCCCP(=O)(c1ccccc1)c1ccccc1)(c1ccccc1)c1ccccc1.[Cl][Sn]([Cl])([c]1ccccc1)[c]1ccccc1")
"96% (active)"

Now, please, on to the next molecule.
Param item = CC(=O)O/C(=C1\C[C@H]2[C@@H]3CC=C4C[C@@H](OC(C)=O)CC[C@]4(C)[C@H]3CC[C@]2(C)C1=O)C(F)(F)F ; retrieve measured growth inhibition. 1% (inactive)

---

protocol-description: NCI Yeast Anticancer Drug Screen. Data for the bub3 strain (AID 167)
condition-summary: S. cerevisiae bub3 mutant strain, at 50.0 µM (retest, dose inferred, filed as 5.0), active compounds read high
Compounds without any hit were thinned out: in the full panel of roughly 79,000, 15% have a hit.
Decide using growth inhibition: a value greater than or equal to 80% is Fulfilled, a smaller one is Not fulfilled.

Example entries and their recorded answers appear below.
>>> classification("CCOP(=O)(OCC)/C(C#N)=C/c1cccc(Br)c1")
"Fulfilled"
>>> classification("CCC[CH2][Sn]1([CH2]CCC)[O]C(=O)C(C(C)C)N=Cc2ccccc2[O]1 (stereo not given)")
"Not fulfilled"

Answer whether growth inhibition of CSc1ccccc1[As](C)C is greater than or equal to 80%. Not fulfilled

Again, but for CCOC(=O)NC(=S)[S][Sb]([S]C(=S)NC(=O)OCC)[S]c1nc2ccc(N=Nc3ccc(NS(=O)(=O)c4ccc(NC(=O)C(N5CC5)(N5CC5)N5CC5)cc4)cc3)cc2s1 Fulfilled

Subsequent entry: NCC(O)c1cccc(O)c1 (stereo not given) Not fulfilled

Data origin: PubChem BioAssay (NCI)
